- Measurement notes: Solubility study in FaSSIF and SGF (saturated solutions, HPLC)
- Assay type: physicochemical
- Condition details: SGF, simulated gastric fluid, thermodynamic from solid, SGF, 4 h; read-out: Solubility SGF
- Method: Samples of Form CS2 of the present disclosure and Form A were suspended in FaSSIF (Fasted state simulated intestinal fluids) and SGF (Simulated gastric fluids) to get saturated solutions. The concentrations of the saturated solutions were measured by high performance liquid chromatography (HPLC) at fixed time points.
Measurement name: solubility at 4 h (mg/mL)
Answer in mg/mL, number only, no unit symbol.

According to the records, this compound COc1cc(N2CCC(N3CCN(C)CC3)CC2)ccc1Nc1ncc(Cl)c(Nc2ccccc2P(C)(C)=O)n1 [Form CS2, AP26113] displays solubility at 4 h of 12.1
